Biological target: human recombinant HDAC6 (Homo sapiens, UniProt Q9UBN7)
Construct: purchased Calbiochem 382180
Sequence (Q9UBN7 1-1215): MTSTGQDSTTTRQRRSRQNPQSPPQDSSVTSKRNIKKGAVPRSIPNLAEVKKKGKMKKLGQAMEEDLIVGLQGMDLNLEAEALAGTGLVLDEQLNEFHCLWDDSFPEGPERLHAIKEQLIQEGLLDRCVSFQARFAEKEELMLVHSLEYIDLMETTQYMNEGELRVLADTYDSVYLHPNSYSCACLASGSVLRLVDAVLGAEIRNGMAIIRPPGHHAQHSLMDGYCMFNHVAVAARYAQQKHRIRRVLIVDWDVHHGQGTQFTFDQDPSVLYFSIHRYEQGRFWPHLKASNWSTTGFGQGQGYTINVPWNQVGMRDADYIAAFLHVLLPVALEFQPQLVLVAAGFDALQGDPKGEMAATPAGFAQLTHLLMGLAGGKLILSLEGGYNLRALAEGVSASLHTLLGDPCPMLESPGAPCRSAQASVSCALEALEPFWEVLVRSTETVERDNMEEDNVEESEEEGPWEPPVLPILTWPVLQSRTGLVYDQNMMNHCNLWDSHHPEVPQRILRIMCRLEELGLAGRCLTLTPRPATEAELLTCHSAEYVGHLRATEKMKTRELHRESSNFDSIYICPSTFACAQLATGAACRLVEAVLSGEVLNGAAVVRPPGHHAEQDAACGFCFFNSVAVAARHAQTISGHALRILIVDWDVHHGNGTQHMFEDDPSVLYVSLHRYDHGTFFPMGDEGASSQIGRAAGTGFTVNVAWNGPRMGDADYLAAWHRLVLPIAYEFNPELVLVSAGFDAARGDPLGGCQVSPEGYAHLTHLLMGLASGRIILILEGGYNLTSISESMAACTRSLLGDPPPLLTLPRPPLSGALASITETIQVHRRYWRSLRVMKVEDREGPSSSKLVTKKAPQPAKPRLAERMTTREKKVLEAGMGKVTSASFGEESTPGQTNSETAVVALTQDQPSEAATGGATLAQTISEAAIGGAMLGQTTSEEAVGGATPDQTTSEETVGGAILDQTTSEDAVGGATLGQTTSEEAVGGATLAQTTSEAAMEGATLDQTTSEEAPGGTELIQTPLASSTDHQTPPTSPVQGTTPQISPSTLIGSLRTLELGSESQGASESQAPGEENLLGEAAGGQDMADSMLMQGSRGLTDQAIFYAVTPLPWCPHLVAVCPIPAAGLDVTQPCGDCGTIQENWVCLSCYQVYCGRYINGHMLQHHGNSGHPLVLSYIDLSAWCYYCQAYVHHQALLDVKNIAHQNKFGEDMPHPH
Assay: HDAC6 enzyme activity inhibition assay (HDAC Fluorimetric Drug Discovery Kit)
Assay type: biochemical
Conditions: HDAC6 over HDAC1
Experimental: In order to examine the HDAC6 selectivity of the compounds of formula I of the present invention by HDAC1 and HDAC6 enzymatic activity inhibition assays, an experiment was performed using a conventional substance as a control. HDAC enzyme activity was measured using a HDAC Fluorimetric Drug Discovery Kit (BML-AK511, 516, Enzo Life Science). […] Based on the resulting values, each IC5, value was calculated using GraphPad Prism4.0 program.
measurement type: HDAC6 selectivity (fold)

> print(dat)
                            compound.smiles  data.value
1  O=C(N1CCOCC1)N(Cc1ccc(-c2nnc(C(F)(F)F)o2)cc1)c1ncccn1          77
2  COc1ccc(N(Cc2ccc(-c3nnc(C(F)F)o3)cn2)C(=O)N2CCS(=O)(=O)CC2)cc1         294
3  O=C1CCN(CCNC(=O)N(Cc2ccc(-c3nnc(C(F)F)o3)cc2F)c2ccccc2)CC1         120
4  CCN1CCN(C(=O)N(Cc2ccc(-c3nnc(C(F)F)o3)cn2)c2cccc(OC)c2)CC1         174
5  O=C(N1CCN(C2COC2)CC1)N(Cc1ccc(-c2nnc(C(F)F)o2)cn1)c1cccc(Cl)c1         201
6  O=C(N1CCS(=O)(=O)CC1)N(Cc1ccc(-c2nnc(C(F)(F)F)o2)cc1)c1cccc(-c2ccc3c(c2)OCO3)c1          11
7  CC(C)(C)c1ccc(N(Cc2ccc(-c3nnc(C(F)F)o3)cc2)C(=O)N2CCS(=O)(=O)CC2)cc1           1

====

Target: human recombinant HDAC6 (Homo sapiens, UniProt Q9UBN7)
Construct: purchased Calbiochem 382180
Sequence (Q9UBN7 1-1215): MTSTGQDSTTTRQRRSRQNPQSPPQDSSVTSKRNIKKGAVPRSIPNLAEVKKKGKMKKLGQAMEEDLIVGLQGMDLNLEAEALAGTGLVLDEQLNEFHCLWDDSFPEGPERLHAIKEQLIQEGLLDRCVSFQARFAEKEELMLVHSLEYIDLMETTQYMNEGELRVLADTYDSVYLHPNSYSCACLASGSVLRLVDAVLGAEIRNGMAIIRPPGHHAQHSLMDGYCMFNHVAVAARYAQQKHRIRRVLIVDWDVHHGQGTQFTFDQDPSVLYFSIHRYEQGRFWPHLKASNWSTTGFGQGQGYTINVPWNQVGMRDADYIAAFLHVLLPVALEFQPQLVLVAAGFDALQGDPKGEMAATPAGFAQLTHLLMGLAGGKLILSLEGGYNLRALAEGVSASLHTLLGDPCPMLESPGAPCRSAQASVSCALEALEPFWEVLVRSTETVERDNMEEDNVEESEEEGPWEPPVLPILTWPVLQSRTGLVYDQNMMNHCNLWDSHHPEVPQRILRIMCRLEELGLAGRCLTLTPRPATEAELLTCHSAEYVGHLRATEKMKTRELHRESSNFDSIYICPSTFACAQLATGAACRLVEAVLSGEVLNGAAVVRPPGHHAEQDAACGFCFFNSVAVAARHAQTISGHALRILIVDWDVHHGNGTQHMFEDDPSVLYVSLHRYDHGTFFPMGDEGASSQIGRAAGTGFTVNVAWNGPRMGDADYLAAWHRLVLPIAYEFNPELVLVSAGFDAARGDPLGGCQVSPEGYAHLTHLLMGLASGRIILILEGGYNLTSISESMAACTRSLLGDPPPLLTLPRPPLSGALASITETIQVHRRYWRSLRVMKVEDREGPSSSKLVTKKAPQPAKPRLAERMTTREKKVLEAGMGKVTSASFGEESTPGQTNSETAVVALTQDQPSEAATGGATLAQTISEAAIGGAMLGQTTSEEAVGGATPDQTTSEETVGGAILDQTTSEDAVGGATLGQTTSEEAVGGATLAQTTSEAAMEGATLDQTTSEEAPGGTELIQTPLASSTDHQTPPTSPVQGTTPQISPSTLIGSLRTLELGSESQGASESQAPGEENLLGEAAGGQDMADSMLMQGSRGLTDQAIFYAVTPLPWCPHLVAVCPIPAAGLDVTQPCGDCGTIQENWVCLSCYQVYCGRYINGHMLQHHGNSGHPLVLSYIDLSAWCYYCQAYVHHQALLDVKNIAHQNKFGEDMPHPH
Test: HDAC6 enzyme activity inhibition assay (HDAC Fluorimetric Drug Discovery Kit)
Format: biochemical
Settings: human recombinant HDAC6, same protocol as HDAC1; read-out: HDAC6
pIC50: −log10 of the molar value.
Catalogue of pIC50 readings, one per entry.
measurement type: pIC50

> print(dat)
                                   molecule  data.value
1  O=C(N1CCN(C2COC2)CC1)N(Cc1ccc(-c2nnc(C(F)F)o2)cn1)c1ccccc1 [Compound 21905]        7.41
2  O=C(N1CCOCC1)N(Cc1ccc(-c2nnc(C(F)(F)F)o2)cc1)c1ccccn1 [Compound 21424]        6.74
3  CCN1CCN(C(=O)N(Cc2ccc(-c3nnc(C(F)F)o3)cc2)c2cccc(F)c2)CC1 [Compound 21883]        7.43
4  O=C(N1CCS(=O)(=O)CC1)N(Cc1ccc(-c2nnc(C(F)F)o2)cc1F)c1ccc2c(c1)CCC2 [Compound 21797]        6.57
5  CCN1CCN(C(=O)N(Cc2ccc(-c3nnc(C(F)F)o3)cn2)c2ccc(Cl)cc2)CC1 [Compound 21882]        7.40
6  O=C(N1CCOCC1)N(Cc1ccccc1)Cc1ccc(-c2nnc(C(F)(F)F)o2)cc1 [Compound 21462]        5.85
7  Cc1cccc(N(Cc2ccc(-c3nnc(C(F)F)o3)cc2F)C(=O)N2CCN(C)CC2)c1 [Compound 21470]        7.49
8  CCN1CCN(C(=O)N(Cc2ccc(-c3nnc(C(F)F)o3)cc2)c2ccc(Cl)cc2)CC1 [Compound 21880]        7.02

====

Target: human recombinant HDAC6 (Homo sapiens, UniProt Q9UBN7)
Construct: purchased Calbiochem 382180
Assay: HDAC6 enzyme activity inhibition assay (HDAC Fluorimetric Drug Discovery Kit)
Format: biochemical
Settings: human recombinant HDAC6, same protocol as HDAC1; read-out: HDAC6
Method: In order to examine the HDAC6 selectivity of the compounds of formula I of the present invention by HDAC1 and HDAC6 enzymatic activity inhibition assays, an experiment was performed using a conventional substance as a control. HDAC enzyme activity was measured using a HDAC Fluorimetric Drug Discovery Kit (BML-AK511, 516, Enzo Life Science). […] Based on the resulting values, each IC5, value was calculated using GraphPad Prism4.0 program.
Catalogue of IC50 readings, one per entry.
measurement type: IC50 (nM)

> print(dat)
                                   compound  measurement.type  data.value
1  O=C(N1CCS(=O)(=O)CC1)N(Cc1ccc(-c2nnc(C(F)(F)F)o2)cc1)c1cccc(-c2ccccc2)c1 [Compound 21439]              IC50        1010
2  CN1CCN(C(=O)N(Cc2ccc(-c3nnc(C(F)F)o3)cc2F)c2cccc3c2cnn3C)CC1 [Compound 21709]              IC50          26
3  CCN1CCN(C(=O)N(Cc2ccc(-c3nnc(C(F)F)o3)cc2F)c2ccc(F)c(Cl)c2)CC1 [Compound 21591]              IC50          15
4  O=C(NCCN1CCN(c2ccc(F)cc2)CC1)N(Cc1ccc(-c2nnc(C(F)F)o2)cc1F)c1ccccc1 [Compound 22010]              IC50         341
5  O=C(NCCN1CCN(C/C=C/c2ccccc2)CC1)N(Cc1ccc(-c2nnc(C(F)F)o2)cc1F)c1ccccc1 [Compound 22016]              IC50         237
6  O=C(N1CCN(C2COC2)CC1)N(Cc1ccc(-c2nnc(C(F)F)o2)cc1)c1ccccc1 [Compound 21954]              IC50         145
7  CCN1CCN(C(=O)N(Cc2ccc(-c3nnc(C(F)F)o3)cc2F)c2ccc(F)cc2Cl)CC1 [Compound 21650]              IC50          77
